Entries and their BRD9 Deg Amax %
# system-name: BRD9-GFP (Homo sapiens, UniProt Q9H8M2)
# Construct: CHYSEL (2A cis-acting hydrolase element) remnant after GFP; mCherry is split off as a separate protein (C); expressed in transfected cells; host or cells: HEK293A cells (Invitrogen R70507), lentiviral transduction with pLenti6-BRD9-GFP-CHYSEL-mCherry, blasticidin selection
# Sequence (Q9H8M2 whole entry): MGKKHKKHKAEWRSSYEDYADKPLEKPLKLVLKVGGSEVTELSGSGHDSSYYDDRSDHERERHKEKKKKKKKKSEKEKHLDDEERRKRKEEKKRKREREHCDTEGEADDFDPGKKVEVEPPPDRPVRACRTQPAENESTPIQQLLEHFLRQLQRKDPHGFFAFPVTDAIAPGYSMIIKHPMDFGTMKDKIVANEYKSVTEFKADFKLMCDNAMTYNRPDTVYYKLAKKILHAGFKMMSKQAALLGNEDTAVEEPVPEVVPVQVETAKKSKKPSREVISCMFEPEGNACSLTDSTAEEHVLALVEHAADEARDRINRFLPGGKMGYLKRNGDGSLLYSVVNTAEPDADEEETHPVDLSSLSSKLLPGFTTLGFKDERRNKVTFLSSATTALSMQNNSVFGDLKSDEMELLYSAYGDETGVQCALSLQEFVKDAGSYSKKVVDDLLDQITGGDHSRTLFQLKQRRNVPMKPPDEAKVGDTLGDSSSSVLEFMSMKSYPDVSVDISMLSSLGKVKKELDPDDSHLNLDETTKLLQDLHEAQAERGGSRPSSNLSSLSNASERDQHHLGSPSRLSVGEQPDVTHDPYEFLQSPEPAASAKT
# assay-overview: BRD9-GFP protein abundance flow cytometry assay in HEK293A cells
# Type: cell-based
# condition: HEK293A-BRD9-GFP-CHYSEL-mCherry cells, 24 h; % protein remaining at the concentration at which maximum degradation is seen
Answer in %, number only, no unit symbol.

Entry under review: COc1cc(-c2cc(C)c(=O)n(C)c2)ccc1C(=O)N1CCN(CC2CCN(C(=O)c3ccc(OC)c(N4CCC(=O)NC4=O)c3)CC2)CC1 . Reported BRD9 Deg Amax %? 12.29

Further cases:
For Cn1cc(-c2cc(F)c(CN3CC[C@@H](OC4CCN(CCn5cccc(CN6CCC(=O)NC6=O)c5=O)CC4)[C@H](F)C3)c(F)c2)c2ccncc2c1=O , what is its reported BRD9 Deg Amax %? 11.19
